Entries and their IC50 values follow.
# tgt: DGKζ (Homo sapiens, UniProt Q13574)
# Construct: purchased Carna 12-110
# Sequence (Q13574 1-929 isoform Q13574-4): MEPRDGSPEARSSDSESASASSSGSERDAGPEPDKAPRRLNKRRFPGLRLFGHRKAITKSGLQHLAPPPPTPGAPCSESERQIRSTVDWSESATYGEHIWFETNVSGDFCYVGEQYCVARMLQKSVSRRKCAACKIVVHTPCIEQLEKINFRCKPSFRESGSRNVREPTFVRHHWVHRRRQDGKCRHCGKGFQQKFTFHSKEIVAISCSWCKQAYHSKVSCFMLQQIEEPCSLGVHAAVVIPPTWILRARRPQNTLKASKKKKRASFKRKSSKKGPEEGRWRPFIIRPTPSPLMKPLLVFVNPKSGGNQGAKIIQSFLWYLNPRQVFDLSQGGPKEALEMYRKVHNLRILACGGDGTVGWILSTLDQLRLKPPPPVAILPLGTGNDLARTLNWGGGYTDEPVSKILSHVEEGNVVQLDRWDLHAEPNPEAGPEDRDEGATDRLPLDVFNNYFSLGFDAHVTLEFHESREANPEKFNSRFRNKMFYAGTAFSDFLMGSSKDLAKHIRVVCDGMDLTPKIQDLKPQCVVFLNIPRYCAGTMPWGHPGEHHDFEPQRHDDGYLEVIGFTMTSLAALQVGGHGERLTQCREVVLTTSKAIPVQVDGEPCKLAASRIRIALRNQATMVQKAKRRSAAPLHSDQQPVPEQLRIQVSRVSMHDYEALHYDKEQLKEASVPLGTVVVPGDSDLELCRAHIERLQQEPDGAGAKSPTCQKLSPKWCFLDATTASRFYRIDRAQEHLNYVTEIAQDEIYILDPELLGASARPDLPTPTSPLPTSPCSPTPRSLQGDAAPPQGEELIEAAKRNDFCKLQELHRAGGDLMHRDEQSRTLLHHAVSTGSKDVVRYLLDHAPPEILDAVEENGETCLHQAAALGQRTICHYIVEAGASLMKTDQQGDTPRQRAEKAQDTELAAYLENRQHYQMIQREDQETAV
# experimental.details: DGKζ biochemical assay (ADP-Glo)
# test.parameters: read-out: DGK ζ IC50
readout.label: IC50

- molecule: "Cn1c(=O)cc(N(C)[C@H]2CC[C@H](N(CC3CC3)c3ccc(F)cn3)CC2)c2nc(C#N)ccc21"
  readout.label: "IC50"
  experimental.result: "≥ 1000 nM"
- molecule: "Cn1c(=O)cc(N(C)[C@H]2CC[C@H](N(CC3COC3)c3ccc(F)cc3O)CC2)c2nc(C#N)ccc21"
  readout.label: "IC50"
  experimental.result: "≥ 1000 nM"
- molecule: "Cn1c(=O)c(C#N)c(N(C)[C@H]2CC[C@H](N(c3ccccc3)C3CC3)CC2)c2nc(Cl)ccc21"
  readout.label: "IC50"
  experimental.result: "≥ 1000 nM"
- molecule: "CC(C)C(=O)N(c1ccc(F)cc1)[C@H]1CC[C@@H](N(C)c2c(C#N)c(=O)n(C)c3ccc(C#N)nc23)CC1"
  readout.label: "IC50"
  experimental.result: "≥ 1000 nM"
- molecule: "Cn1c(=O)c(C#N)c(N(C)[C@H]2CC[C@@H](N(c3ccc(F)cc3)C3CCC3)CC2)c2nc(C#N)ccc21"
  readout.label: "IC50"
  experimental.result: "100 to 1000 nM"
- molecule: "Cn1c(=O)c(C#N)c(N(C)[C@H]2CC[C@@H](N(c3ccc(F)cc3)C3CC3)CC2)c2nc(C#N)ccc21"
  readout.label: "IC50"
  experimental.result: "100 to 1000 nM"
- molecule: "Cc1ccc(N(CC2CCC2)[C@H]2CC[C@H](N(C)c3c(C#N)c(=O)n(C)c4ccc(C#N)nc34)CC2)cc1"
  readout.label: "IC50"
  experimental.result: "100 to 1000 nM"
- molecule: "Cn1c(=O)c(C#N)c(N(C)[C@H]2CC[C@H](N(c3ccccc3O)C3CC3)CC2)c2nc(Cl)ccc21"
  readout.label: "IC50"
  experimental.result: "100 to 1000 nM"
- molecule: "Cc1cc(N(CC2CCC2)[C@H]2CC[C@@H](N(C)c3cc(=O)n(C)c4ccc(C#N)nc34)CC2)ccc1F"
  readout.label: "IC50"
  experimental.result: "100 to 1000 nM"
- molecule: "Cc1cc(F)ccc1N(CC1CCCO1)C1CCC(N(C)c2c(C#N)c(=O)n(C)c3ccc(C#N)nc23)CC1 (stereo in doubt)"
  readout.label: "IC50"
  experimental.result: "100 to 1000 nM"
- molecule: "Cn1c(=O)c(C#N)c(N(C)[C@H]2CC[C@@H](N(CC3CCOC3)c3ccc(F)c(OC(F)F)c3)CC2)c2nc(C#N)ccc21 (stereo partly shown)"
  readout.label: "IC50"
  experimental.result: "10 to 100 nM"
- molecule: "Cn1c(=O)cc(N(C)[C@H]2CC[C@H](N(CC3CC3)c3ccc4c(c3)OCO4)CC2)c2nc(C#N)ccc21"
  readout.label: "IC50"
  experimental.result: "≥ 1000 nM"
- molecule: "CN1C(=O)COc2ccc(N(CC3CC3)[C@H]3CC[C@@H](N(C)c4cc(=O)n(C)c5ccc(C#N)nc45)CC3)cc21"
  readout.label: "IC50"
  experimental.result: "≥ 1000 nM"
- molecule: "Cn1c(=O)c(C#N)c(N(C)[C@H]2CC[C@@H](N(CC3COC3)c3ccc(F)cc3)CC2)c2nc(Cl)ccc21"
  readout.label: "IC50"
  experimental.result: "100 to 1000 nM"
- molecule: "Cn1c(=O)cc(N2CCC(N(CC3CC3)c3ccccc3O)CC2)c2nc(C#N)ccc21"
  readout.label: "IC50"
  experimental.result: "≥ 1000 nM"
- molecule: "COc1cccc(N(CC2CC2)[C@H]2CC[C@H](N(C)c3cc(=O)n(C)c4ccc(C#N)nc34)CC2)c1"
  readout.label: "IC50"
  experimental.result: "≥ 1000 nM"
- molecule: "Cn1c(=O)cc(N(C)[C@H]2CC[C@H](N(c3ccccc3)C3CC3)CC2)c2nc(C#N)ccc21"
  readout.label: "IC50"
  experimental.result: "100 to 1000 nM"
- molecule: "Cn1c(=O)cc(N(C)[C@H]2CC[C@H](N(CC3CC3)c3cccc(F)c3)CC2)c2nc(C#N)ccc21"
  readout.label: "IC50"
  experimental.result: "≥ 1000 nM"
- molecule: "Cn1c(=O)c(C#N)c(N(C)[C@H]2CC[C@@H](N(CC3CCC3)c3cccc4c3OCO4)CC2)c2nc(C#N)ccc21"
  readout.label: "IC50"
  experimental.result: "10 to 100 nM"
- molecule: "COc1cc(N(CC2CC2)[C@H]2CC[C@@H](N(C)c3cc(=O)n(C)c4ccc(C#N)nc34)CC2)ccc1F"
  readout.label: "IC50"
  experimental.result: "100 to 1000 nM"
- molecule: "Cc1[nH]c2ccccc2c1C(=O)N[C@H]1CC[C@H](N(CC2(C)COC2)c2ccccc2)CC1"
  readout.label: "IC50"
  experimental.result: "≥ 1000 nM"
- molecule: "O=C(N[C@H]1CC[C@@H](N(CC2CC2)c2ccccc2)CC1)c1c[nH]c2cccnc12"
  readout.label: "IC50"
  experimental.result: "≥ 1000 nM"
- molecule: "COc1cc(F)ccc1N(CC1CC1)[C@H]1CC[C@@H](N(C)c2cc(=O)n(C)c3ccc(C#N)nc23)CC1"
  readout.label: "IC50"
  experimental.result: "100 to 1000 nM"
- molecule: "COc1cc(F)ccc1N(CC1CC1)[C@H]1CC[C@@H](N(C)c2c(C#N)c(=O)n(C)c3ccc(C#N)nc23)CC1"
  readout.label: "IC50"
  experimental.result: "100 to 1000 nM"
- molecule: "COc1cccc(N(CC2CC2)[C@H]2CC[C@@H](N(C)c3c(C#N)c(=O)n(C)c4cccnc34)CC2)c1"
  readout.label: "IC50"
  experimental.result: "≥ 1000 nM"
- molecule: "COc1cc(F)ccc1N(C)[C@H]1CC[C@H](N(C)c2c(C#N)c(=O)n(C)c3ccc(C#N)nc23)CC1"
  readout.label: "IC50"
  experimental.result: "10 to 100 nM"
- molecule: "COc1cc(F)ccc1N(C1CC1)[C@H]1CC[C@@H](N(C)c2c(C#N)c(=O)n(C)c3ccc(Cl)nc23)CC1"
  readout.label: "IC50"
  experimental.result: "10 to 100 nM"
- molecule: "COc1cc(F)ccc1N(C1CC1)[C@H]1CC[C@@H](N(C)c2cc(=O)n(C)c3ccc(C#N)nc23)CC1"
  readout.label: "IC50"
  experimental.result: "100 to 1000 nM"

----------
The molecules below have reported IC50 for UniProt:P23743.
Sequence (P23743 whole entry): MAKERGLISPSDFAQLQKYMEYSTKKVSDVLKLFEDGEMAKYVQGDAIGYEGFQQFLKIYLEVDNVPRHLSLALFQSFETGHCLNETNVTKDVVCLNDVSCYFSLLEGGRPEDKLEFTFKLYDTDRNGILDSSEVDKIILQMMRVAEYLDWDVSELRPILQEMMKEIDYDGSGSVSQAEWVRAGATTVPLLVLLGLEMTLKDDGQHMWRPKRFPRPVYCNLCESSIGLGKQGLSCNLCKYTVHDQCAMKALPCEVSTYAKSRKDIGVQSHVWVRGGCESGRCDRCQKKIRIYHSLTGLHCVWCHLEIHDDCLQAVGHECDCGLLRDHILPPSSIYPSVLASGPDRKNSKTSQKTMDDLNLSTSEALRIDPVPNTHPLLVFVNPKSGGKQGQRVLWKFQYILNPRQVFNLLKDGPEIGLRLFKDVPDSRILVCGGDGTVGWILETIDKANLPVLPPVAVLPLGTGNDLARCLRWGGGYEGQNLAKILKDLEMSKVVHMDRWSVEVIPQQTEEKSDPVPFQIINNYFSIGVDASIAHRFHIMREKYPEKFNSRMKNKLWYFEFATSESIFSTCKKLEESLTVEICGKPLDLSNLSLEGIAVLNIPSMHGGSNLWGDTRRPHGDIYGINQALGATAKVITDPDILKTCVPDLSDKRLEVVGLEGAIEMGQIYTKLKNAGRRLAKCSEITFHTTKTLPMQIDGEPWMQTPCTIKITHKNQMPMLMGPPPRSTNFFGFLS
readout.label: IC50

- molecule: "Cn1c(=O)c(C#N)c(N(C)[C@H]2CC[C@H](N(c3ccc(F)cn3)C3CC3)CC2)c2nc(Cl)ccc21"
  readout.label: "IC50"
  experimental.result: "10 to 100 nM"
- molecule: "Cn1c(=O)c(C#N)c(N(C)[C@H]2CC[C@H](N(CC3CC3)c3cccnc3)CC2)c2nc(C#N)ccc21"
  readout.label: "IC50"
  experimental.result: "≥ 1000 nM"
- molecule: "Cn1c(=O)c(C#N)c(N(C)[C@H]2CC[C@H](N(CC3CCOCC3)c3ccc(F)cc3)CC2)c2nc(C#N)ccc21"
  readout.label: "IC50"
  experimental.result: "100 to 1000 nM"
- molecule: "Cn1c(=O)c(C#N)c(N(C)[C@H]2CC[C@@H](N(CC3CC3)c3ccc4c(c3)COC4)CC2)c2nc(C#N)ccc21"
  readout.label: "IC50"
  experimental.result: "≥ 1000 nM"
- molecule: "Cn1c(=O)c(C#N)c(N(C)[C@H]2CC[C@@H](N(C[C@H]3C[C@H](O)C3)c3ccc(F)cc3)CC2)c2nc(C#N)ccc21"
  readout.label: "IC50"
  experimental.result: "< 10 nM"
- molecule: "Cc1ccc(N(CC2CCOC2)[C@H]2CC[C@@H](N(C)c3cc(=O)n(C)c4ccc(C#N)nc34)CC2)cc1OC(F)F (stereo partly drawn)"
  readout.label: "IC50"
  experimental.result: "100 to 1000 nM"
- molecule: "Cn1c(=O)c(C#N)c(N(C)[C@H]2CC[C@H](N(CC3COC3)c3ccc(F)cc3)CC2)c2nc(Cl)ccc21"
  readout.label: "IC50"
  experimental.result: "10 to 100 nM"
- molecule: "Cn1c(=O)c(C#N)c(N(C)[C@H]2CC[C@H](N(c3ccc(F)cc3O)C3CC3)CC2)c2nc(Cl)ccc21"
  readout.label: "IC50"
  experimental.result: "10 to 100 nM"
- molecule: "CC(C)C(=O)N(c1ccc(F)cc1)[C@H]1CC[C@@H](N(C)c2c(C#N)c(=O)n(C)c3ccc(C#N)nc23)CC1"
  readout.label: "IC50"
  experimental.result: "100 to 1000 nM"
- molecule: "Cn1c(=O)cc(N(C)[C@H]2CC[C@H](N(CC3CCC3)c3ccc(F)cc3)CC2)c2nc(C#N)ccc21"
  readout.label: "IC50"
  experimental.result: "100 to 1000 nM"
- molecule: "Cn1c(=O)c(C#N)c(N(C)[C@H]2CC[C@@H](N(CC3CCOCC3)c3ccc(F)cc3)CC2)c2nc(C#N)ccc21"
  readout.label: "IC50"
  experimental.result: "10 to 100 nM"
- molecule: "Cn1c(=O)c(C#N)c(N(C)[C@H]2CC[C@H](N(CC3CC3)c3ccc(F)c(OC4CC4)c3)CC2)c2nc(C#N)ccc21"
  readout.label: "IC50"
  experimental.result: "10 to 100 nM"
- molecule: "COc1cccc(N(CC2CC2)[C@H]2CC[C@H](N(C)c3c(C#N)c(=O)n(C)c4ccc(Cl)nc34)CC2)c1"
  readout.label: "IC50"
  experimental.result: "10 to 100 nM"
- molecule: "Cc1cc(F)ccc1N(CC1CC(F)(F)C1)[C@H]1CC[C@@H](N(C)c2cc(=O)n(C)c3ccc(C#N)nc23)CC1"
  readout.label: "IC50"
  experimental.result: "100 to 1000 nM"
- molecule: "Cn1c(=O)c(C#N)c(N(C)[C@H]2CC[C@@H](N(CC3COCCO3)c3ccc4c(c3)OCCO4)CC2)c2nc(C#N)ccc21 (stereo partly drawn)"
  readout.label: "IC50"
  experimental.result: "≥ 1000 nM"
- molecule: "Cc1nc(F)ccc1N(CC1CCC1)[C@H]1CC[C@H](N(C)c2c(C#N)c(=O)n(C)c3ccc(Cl)nc23)CC1"
  readout.label: "IC50"
  experimental.result: "≥ 1000 nM"
- molecule: "Cc1ccc2c(c1)c(N1CCC(N(CC3CC3)c3ccccc3)CC1)cc1nncn12"
  readout.label: "IC50"
  experimental.result: "10 to 100 nM"
- molecule: "COc1cc(N(CC2CC2)[C@H]2CC[C@@H](N(C)c3c(C#N)c(=O)n(C)c4ccc(Cl)nc34)CC2)ccc1F"
  readout.label: "IC50"
  experimental.result: "10 to 100 nM"
- molecule: "Cn1c(=O)c(C#N)c(N(C)[C@H]2CC[C@@H](N(CC3CC3)c3ccc(Cl)cc3)CC2)c2nc(Cl)ccc21"
  readout.label: "IC50"
  experimental.result: "10 to 100 nM"
- molecule: "COc1cc(N(CC2CC2)[C@H]2CC[C@H](N(C)c3cc(=O)n(C)c4ccc(C#N)nc34)CC2)ccc1F"
  readout.label: "IC50"
  experimental.result: "≥ 1000 nM"
- molecule: "Cn1c(=O)c(C#N)c(N(C)[C@H]2CC[C@@H](N(CC3CCC3)c3cccc4c3OCO4)CC2)c2nc(C#N)ccc21"
  readout.label: "IC50"
  experimental.result: "10 to 100 nM"
- molecule: "Cn1c(=O)cc(N(C)[C@H]2CC[C@@H](N(Cc3ccccc3)CC3CC3)CC2)c2nc(C#N)ccc21"
  readout.label: "IC50"
  experimental.result: "≥ 1000 nM"
- molecule: "Cc1ccccc1N(CC1CC1)[C@H]1CC[C@H](N(C)c2cc(=O)n(C)c3ccc(C#N)nc23)CC1"
  readout.label: "IC50"
  experimental.result: "≥ 1000 nM"
- molecule: "COc1cc(F)ccc1N(C1CCC1)[C@H]1CC[C@@H](N(C)c2c(C#N)c(=O)n(C)c3ccc(C#N)nc23)CC1"
  readout.label: "IC50"
  experimental.result: "100 to 1000 nM"
- molecule: "COc1cc(F)ccc1N(CC1CCC1)[C@H]1CC[C@H](N(C)c2c(C#N)c(=O)n(C)c3ccc(C#N)nc23)CC1"
  readout.label: "IC50"
  experimental.result: "100 to 1000 nM"
- molecule: "Cn1c(=O)cc(N(C)[C@H]2CC[C@H](N(CC3CC3)c3ccc4c(c3)OCO4)CC2)c2nc(C#N)ccc21"
  readout.label: "IC50"
  experimental.result: "≥ 1000 nM"
- molecule: "Cn1c(=O)c(C#N)c(N(C)[C@H]2CC[C@@H](N(c3ccc(F)cc3)C3CC3)CC2)c2nc(Cl)ccc21"
  readout.label: "IC50"
  experimental.result: "< 10 nM"
